Molecular target: spermine oxidase (SMOX) (Homo sapiens)
Construct: human SMOX expressed from pET15b in E. coli BL21(DE3), polyhistidine tag removed by thrombin
Sequence (Q9NWM0 whole entry): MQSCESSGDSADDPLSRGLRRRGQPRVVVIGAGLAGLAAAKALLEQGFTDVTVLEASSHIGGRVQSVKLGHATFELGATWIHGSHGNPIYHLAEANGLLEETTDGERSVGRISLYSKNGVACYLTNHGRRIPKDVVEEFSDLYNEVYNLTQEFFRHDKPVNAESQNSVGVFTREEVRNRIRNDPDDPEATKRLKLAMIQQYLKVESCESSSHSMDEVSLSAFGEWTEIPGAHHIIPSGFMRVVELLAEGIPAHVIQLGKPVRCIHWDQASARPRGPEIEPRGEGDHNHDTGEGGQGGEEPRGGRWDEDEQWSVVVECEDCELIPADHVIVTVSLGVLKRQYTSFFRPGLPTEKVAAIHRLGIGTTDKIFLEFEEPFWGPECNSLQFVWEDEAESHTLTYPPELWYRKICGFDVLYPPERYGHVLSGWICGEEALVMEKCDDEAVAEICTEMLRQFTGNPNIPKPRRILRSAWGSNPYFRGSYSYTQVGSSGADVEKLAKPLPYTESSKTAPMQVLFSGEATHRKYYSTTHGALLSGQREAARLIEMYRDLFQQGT
Test: luminol-HRP chemiluminescent H2O2 assay with purified SMOX, […] Spm substrate, […] min preincubation
Assay type: biochemical
pIC50: −log10 of the molar value.
Measured metric: pIC50

>>> measurement("C=C(CN)CNCCCCNCC(=C)CN")
3.77
